target: Bcr/Abl fusion protein (Homo sapiens); assay: Inhibition of Bcr-Abl kinase (unknown origin) after 30 mins by HTRF assay; type: protein assay
Sequence (P00519 whole entry, the tested form may be a part): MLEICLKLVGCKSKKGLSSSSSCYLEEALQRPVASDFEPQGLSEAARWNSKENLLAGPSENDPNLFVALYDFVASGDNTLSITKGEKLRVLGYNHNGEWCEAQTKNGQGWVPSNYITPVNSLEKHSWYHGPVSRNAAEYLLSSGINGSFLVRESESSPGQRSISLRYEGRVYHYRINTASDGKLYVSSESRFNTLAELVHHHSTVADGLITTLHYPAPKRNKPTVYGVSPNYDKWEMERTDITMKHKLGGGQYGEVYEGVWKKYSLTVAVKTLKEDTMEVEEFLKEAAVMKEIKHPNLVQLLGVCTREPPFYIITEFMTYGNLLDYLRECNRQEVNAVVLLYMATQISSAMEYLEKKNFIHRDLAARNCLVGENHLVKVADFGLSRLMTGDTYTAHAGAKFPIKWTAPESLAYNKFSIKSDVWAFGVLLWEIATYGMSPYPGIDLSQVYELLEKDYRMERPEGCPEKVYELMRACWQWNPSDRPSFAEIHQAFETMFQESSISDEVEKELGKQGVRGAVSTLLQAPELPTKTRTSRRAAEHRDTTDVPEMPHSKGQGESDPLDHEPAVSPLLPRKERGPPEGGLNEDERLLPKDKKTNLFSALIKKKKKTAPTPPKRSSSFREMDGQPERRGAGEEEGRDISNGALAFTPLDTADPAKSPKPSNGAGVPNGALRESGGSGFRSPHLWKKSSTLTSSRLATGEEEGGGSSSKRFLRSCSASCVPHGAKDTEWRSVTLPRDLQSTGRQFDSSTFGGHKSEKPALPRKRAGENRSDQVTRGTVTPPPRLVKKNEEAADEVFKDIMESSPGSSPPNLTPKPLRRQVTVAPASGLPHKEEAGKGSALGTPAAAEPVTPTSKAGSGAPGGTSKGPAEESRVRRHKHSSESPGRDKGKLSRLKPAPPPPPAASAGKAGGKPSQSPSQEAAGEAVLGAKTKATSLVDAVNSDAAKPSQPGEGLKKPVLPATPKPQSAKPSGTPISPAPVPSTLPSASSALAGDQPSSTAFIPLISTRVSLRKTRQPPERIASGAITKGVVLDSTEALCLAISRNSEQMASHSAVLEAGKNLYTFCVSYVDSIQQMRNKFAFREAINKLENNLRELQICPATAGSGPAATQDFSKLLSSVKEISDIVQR
Sequence (P11274 whole entry, further chain, the tested form may be a part): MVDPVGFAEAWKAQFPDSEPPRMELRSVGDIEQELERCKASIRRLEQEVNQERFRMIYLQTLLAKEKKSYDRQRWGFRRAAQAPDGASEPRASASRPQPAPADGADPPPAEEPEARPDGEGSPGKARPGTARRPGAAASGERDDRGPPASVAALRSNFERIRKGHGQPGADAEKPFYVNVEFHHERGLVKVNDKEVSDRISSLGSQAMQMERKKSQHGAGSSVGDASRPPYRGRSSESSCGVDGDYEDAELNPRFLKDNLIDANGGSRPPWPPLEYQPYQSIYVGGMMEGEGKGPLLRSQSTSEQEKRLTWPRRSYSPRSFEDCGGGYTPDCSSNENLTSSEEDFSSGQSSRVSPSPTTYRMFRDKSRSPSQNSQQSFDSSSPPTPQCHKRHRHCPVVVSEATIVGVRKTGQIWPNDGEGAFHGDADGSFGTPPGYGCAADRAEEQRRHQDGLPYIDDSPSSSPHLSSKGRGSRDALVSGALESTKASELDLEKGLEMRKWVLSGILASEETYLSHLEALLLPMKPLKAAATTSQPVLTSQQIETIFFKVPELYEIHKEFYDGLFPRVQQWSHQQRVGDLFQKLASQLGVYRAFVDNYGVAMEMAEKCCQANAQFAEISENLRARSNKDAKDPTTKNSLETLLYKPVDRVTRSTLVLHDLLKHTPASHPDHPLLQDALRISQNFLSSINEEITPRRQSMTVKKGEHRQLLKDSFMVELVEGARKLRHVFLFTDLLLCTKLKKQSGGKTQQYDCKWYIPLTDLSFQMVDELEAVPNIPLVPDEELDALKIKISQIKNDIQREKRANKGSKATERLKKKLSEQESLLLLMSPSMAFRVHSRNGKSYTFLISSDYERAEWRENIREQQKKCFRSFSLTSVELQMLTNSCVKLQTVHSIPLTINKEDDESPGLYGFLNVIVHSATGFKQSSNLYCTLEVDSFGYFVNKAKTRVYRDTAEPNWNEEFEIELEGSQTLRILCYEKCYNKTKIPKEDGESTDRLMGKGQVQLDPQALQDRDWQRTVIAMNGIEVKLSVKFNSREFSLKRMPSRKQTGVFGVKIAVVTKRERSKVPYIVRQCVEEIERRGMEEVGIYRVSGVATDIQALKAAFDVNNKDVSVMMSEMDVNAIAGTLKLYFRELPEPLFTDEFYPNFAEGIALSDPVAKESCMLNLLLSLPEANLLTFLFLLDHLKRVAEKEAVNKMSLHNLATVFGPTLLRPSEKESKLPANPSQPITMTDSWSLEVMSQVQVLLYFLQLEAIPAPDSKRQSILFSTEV
pIC50: −log10 of the molar value.
Decide using pIC50: a value greater than or equal to 8 is YES, a smaller one is NO.

Use the examples below as a reference point.
smiles-structure	cat
COc1ccc(C(=O)Nc2ccc(OCCN3CCCC3)cc2)cc1Nc1nccc(-c2cccnc2)n1	NO
COc1ccc(C(=O)Nc2cccc(C(F)(F)F)c2)cc1Nc1nccc(-c2cccnc2)n1	NO
COc1ccc(C(=O)Nc2ccc(F)c(Cl)c2)cc1Nc1nccc(-c2cccnc2)n1	YES

Is pIC50 for COc1ccc(C(=O)Nc2ccc(OCCN3CCOCC3)cc2)cc1Nc1nccc(-c2cccnc2)n1 at or above 8?
NO
